system: MCF10A; assay: percent viability (nuclei count relative to siNT); higher = more viable cells; conditions: 20 nM; 72 h
In plain terms, low percent viability, meaning strictly below 70%, gives Condition met, and everything else gives Condition not met.

{"sequence chain": "GAUCCAUCUCUGCCUGUAUUGGC [hsa-miR-7151-5p]", "discrete label": "Condition not met"}
{"sequence chain": "GGGGCCUGGCGGUGGGCGG [hsa-miR-2861]", "discrete label": "Condition not met"}
{"sequence chain": "UGAGCCCCUGUGCCGCCCCCAG [hsa-miR-1225-3p]", "discrete label": "Condition not met"}
{"sequence chain": "CCUGGCAUAUUUGGUAUAACUU [hsa-miR-4720-5p]", "discrete label": "Condition met"}
{"sequence chain": "AUGGAAUGUAUAUACGGAAUA [hsa-miR-3673]", "discrete label": "Condition met"}
{"sequence chain": "UUCUCUCUGUCUUUCUCUCUCAG [hsa-miR-6873-3p]", "discrete label": "Condition met"}
{"sequence chain": "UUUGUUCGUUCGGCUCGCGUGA [hsa-miR-375]", "discrete label": "Condition met"}
{"sequence chain": "UGUGACUUUAAGGGAAAUGGCG [hsa-miR-3164]", "discrete label": "Condition met"}
{"sequence chain": "AUGGAGAAGGCUUCUGA [hsa-miR-4531]", "discrete label": "Condition met"}
{"sequence chain": "AAAAACCACAAUUACUUUU [hsa-miR-548ap-3p]", "discrete label": "Condition met"}
{"sequence chain": "AUUGGGGACAUUUUGCAUUCAU [hsa-miR-450a-3p]", "discrete label": "Condition met"}
{"sequence chain": "UUCCAGCCCUGGUAGGCGCCGCG [hsa-miR-6720-5p]", "discrete label": "Condition met"}
{"sequence chain": "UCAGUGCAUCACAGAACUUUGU [hsa-miR-148b-3p]", "discrete label": "Condition not met"}
{"sequence chain": "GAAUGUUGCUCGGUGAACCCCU [hsa-miR-409-3p]", "discrete label": "Condition met"}
{"sequence chain": "GACAUUCAGACUACCUG [hsa-miR-4262]", "discrete label": "Condition not met"}
{"sequence chain": "AUCUGUAAGAGAAAGUAAAUGA [hsa-miR-3686]", "discrete label": "Condition met"}
{"sequence chain": "UCGGCCUGACCACCCACCCCAC [hsa-miR-1234-3p]", "discrete label": "Condition not met"}
{"sequence chain": "CCACUUGGAUCUGAAGGCUGCCC [hsa-miR-3614-5p]", "discrete label": "Condition met"}
{"sequence chain": "GGAGGAACCUUGGAGCUUCGGC [hsa-miR-3928]", "discrete label": "Condition met"}
{"sequence chain": "AACCUUGGCCCCUCUCCCCAG [hsa-miR-6813-3p]", "discrete label": "Condition not met"}
{"sequence chain": "AGCGGGGAGGAAGUGGGCGCUGCUU [hsa-miR-4706]", "discrete label": "Condition met"}
{"sequence chain": "AAGGGACAGGGAGGGUCGUGG [hsa-miR-7845-5p]", "discrete label": "Condition met"}
{"sequence chain": "UGAGGCUCUGUUAGCCUUGGCUC [hsa-miR-2467-5p]", "discrete label": "Condition met"}

---

system: MCF10A; experiment: percent viability (nuclei count relative to siNT); higher = more viable cells; details: 20 nM; 72 h
In plain terms, low percent viability, meaning strictly below 50%, gives MET, and everything else gives NOT MET.

{"sequence chain": "UGUGACUGCAUUAUGAAAAUUCU [hsa-miR-3118]", "discrete label": "MET"}
{"sequence chain": "CGGGCCGGAGGUCAAGGGCGU [hsa-miR-6781-5p]", "discrete label": "MET"}
{"sequence chain": "AGAUUGUUUCUUUUGCCGUGCA [hsa-miR-4445-5p]", "discrete label": "MET"}
{"sequence chain": "UGAGGGCUCCAGGUGACGGUGG [hsa-miR-4721]", "discrete label": "MET"}
{"sequence chain": "ACAAAAAAAAAAGCCCAACCCUUC [hsa-miR-3613-3p]", "discrete label": "NOT MET"}
{"sequence chain": "UCAGUCACAUAUCUAGUGUCUA [hsa-miR-4704-3p]", "discrete label": "NOT MET"}
{"sequence chain": "CAAUGUGAUCUUUUGGAUGUA [hsa-miR-8066]", "discrete label": "MET"}
{"sequence chain": "AAAAGUAAUUGCGAGUUUUACC [hsa-miR-548a-5p]", "discrete label": "NOT MET"}
{"sequence chain": "GUUAGGGCCAACAUCUCUUGG [hsa-miR-2909]", "discrete label": "MET"}
{"sequence chain": "CAACCUCGACGAUCUCCUCAGC [hsa-miR-3150a-5p]", "discrete label": "NOT MET"}

---

tested on: MCF10A; assay: percent viability (nuclei count relative to siNT); higher = more viable cells; conditions: 20 nM; 72 h
In plain terms, low percent viability, meaning strictly below 50%, gives True, and everything else gives False.

{"sequence chain": "GUGAGGGCAUGCAGGCCUGGAUGGGG [hsa-miR-1226-5p]", "discrete label": "False"}
{"sequence chain": "GUGAGUGGGAGCCGGUGGGGCUG [hsa-miR-4758-5p]", "discrete label": "False"}
{"sequence chain": "GAGCUUGGUCUGUAGCGGUU [hsa-miR-4453]", "discrete label": "True"}
{"sequence chain": "ACACAGUGCUUCAUCCACUACU [hsa-miR-3681-3p]", "discrete label": "False"}
{"sequence chain": "CUUCCGCCCCGCCGGGCGUCG [hsa-miR-718]", "discrete label": "False"}

---

system: MCF10A; assay: percent viability (nuclei count relative to siNT); higher = more viable cells; settings: 20 nM; 72 h
attribute measured: percent viability (%)

{"sequence chain": "CUGGGACAGGAGGAGGAGGCAG [hsa-miR-4298]", "test target": "MCF10A", "meas value": 67.8}
{"sequence chain": "UACUGCAGACAGUGGCAAUCA [hsa-miR-509-5p]", "test target": "MCF10A", "meas value": 48.8}
{"sequence chain": "UGGAGAUCCAGUGCUCGCCCGAU [hsa-miR-4683]", "test target": "MCF10A", "meas value": 56.7}
{"sequence chain": "CGGGGCAGCUCAGUACAGGAU [hsa-miR-486-3p]", "test target": "MCF10A", "meas value": 10.1}
{"sequence chain": "UAGUGGAUGAUGCACUCUGUGC [hsa-miR-3681-5p]", "test target": "MCF10A", "meas value": 50}
{"sequence chain": "UGGGCCAUGCAUUUCUAGAACU [hsa-miR-6508-3p]", "test target": "MCF10A", "meas value": 40.2}

---

test system: MCF10A; assay: one-nucleolus phenotype percent effect (relative to siNT 0% and siNOL11 100%); higher = more cells with one nucleolus (ribosome biogenesis inhibition); conditions: 20 nM; 72 h

{"sequence chain": "UCUGGUCCUGGACAGGAGGC [hsa-miR-7152-3p]", "one-nucleolus phenotype percent effect": "-12.8%"}
{"sequence chain": "ACAGGCGGCUGUAGCAAUGGGGG [hsa-miR-3937]", "one-nucleolus phenotype percent effect": "31.6%"}
{"sequence chain": "UAUUCAUUUAUCCCCAGCCUACA [hsa-miR-664a-3p]", "one-nucleolus phenotype percent effect": "-21%"}
{"sequence chain": "UUAAUAUCGGACAACCAUUGU [hsa-miR-889]", "one-nucleolus phenotype percent effect": "-0.642%"}
{"sequence chain": "UCUGGCAAGUAAAAAACUCUCAU [hsa-miR-3128]", "one-nucleolus phenotype percent effect": "10.4%"}
{"sequence chain": "CUCCCACUUCCAGAUCUUUCU [hsa-miR-3156-3p]", "one-nucleolus phenotype percent effect": "-4.85%"}
{"sequence chain": "AGUGGCAAAGUCUUUCCAUAU [hsa-miR-3688-5p]", "one-nucleolus phenotype percent effect": "16%"}
{"sequence chain": "UUUCCCUUCAGAGCCUGGCUUU [hsa-miR-4755-5p]", "one-nucleolus phenotype percent effect": "3.84%"}
{"sequence chain": "UUGCCACACUGCAACACCUUACA [hsa-miR-3064-3p]", "one-nucleolus phenotype percent effect": "8.14%"}
{"sequence chain": "AUAUGUAUAUGUGACUGCUACU [hsa-miR-3924]", "one-nucleolus phenotype percent effect": "-20%"}
{"sequence chain": "AGUGCCUGCUAUGUGCCAGGCA [hsa-miR-1271-3p]", "one-nucleolus phenotype percent effect": "-6.99%"}
{"sequence chain": "GGGCUAGGGCCUGCUGCCCCC [hsa-miR-6069]", "one-nucleolus phenotype percent effect": "-4.55%"}
